# Test system: U2OS
# experimental-details: cell viability relative to DMSO; higher = less toxic
# conditions-used: 72 h; 10 nM
assay-endpoint: cell viability (%)
# unit: % | format: bare number

Exercise: Which cell viability is listed for `O=C(O)CCc1ccc(NCc2cccc(Oc3ccccc3)c2)cc1` ?
Key: 97

Exercise: Would you mind telling me what cell viability value was observed for `CCCc1cc(C)[nH]c(=O)c1CNC(=O)c1cc(-c2ccc(N3CCN(C(C)C)CC3)nc2)cc2c1cnn2C(C)C` ?
Key: 102

Exercise: Fill in: cell viability of `CCCCOc1ccc(-c2cncc(C(=O)NCc3cccnc3N3CCOCC3)c2)cc1Cl` is ___
Key: 103

Exercise: Given `CC[C@H]1OC(=O)[C@H](C)C(=O)[C@H](C)[C@@H](O[C@@H]2O[C@H](C)C[C@H](N(C)C)[C@H]2O)[C@](C)(OC)C[C@@H](C)C(=O)[C@H](C)[C@H]2N(CCCCn3cnc(-c4cccnc4)c3)C(=O)O[C@]12C` , state its recorded cell viability.
Key: 95.4

Exercise: What does the data say about its cell viability? Entry: c1cnc2c([O][Ga]([O]c3cccc4cccnc34)[O]c3cccc4cccnc34)cccc2c1 [gallium-triquinolin-8-olate]
Key: 105

Exercise: Any idea what its cell viability is? The compound is `COc1ccc(-n2c(SCCCN3C(=O)c4cccc5cccc(c45)C3=O)nnc2-c2ccncc2)cc1`
Key: 109

Exercise: Request the reported cell viability associated with `CC(=O)OCC1=C(C(=O)O)N2C(=O)[C@@H](NC(=O)CS/C(=N/C(C)C)NC(C)C)[C@H]2SC1`
Key: 94.3

Exercise: GET /values?readout=cell viability&item= CN1CCCC(CN2c3ccccc3Sc3ccccc32)C1 (stereo unspecified)
Key: 98.6

Exercise: Given the compound `O=c1c2ccccc2nc2n1CCc1c-2[nH]c2ccccc12` , what is its reported cell viability?
Key: 101

Exercise: // query cell viability value for entry `CC(C)(C#N)c1cc(Cn2cncn2)cc(C(C)(C)C#N)c1`
Key: 98.3

Exercise: Consider the compound `Oc1c(Cl)cc(Cl)c2cccnc12` and give its measured cell viability.
Key: 103

* * *

I'd appreciate it if you could supply cell viability values for the items below.
# Tested on: HepG2
# experimental-details: cell viability relative to DMSO; higher = less toxic
# conditions-used: 72 h; 1 nM
Counter-ions that a name gives are not always drawn.
// note: answer is a bare numeric in %

Exercise: Return cell viability measured with HepG2 given this compound: `O=C1C(=O)N(Cc2ccc(Cl)c(Cl)c2)c2ccccc21`
Key: 103

Exercise: Hi! What's the reported cell viability for `CCc1cc2c(s1)-n1c(C)nnc1CN=C2c1ccccc1Cl` on HepG2?
Key: 104

Exercise: Quick check: cell viability on HepG2, item `c1ccc(CCNc2nc(-c3ccccc3)cs2)cc1` ?
Key: 101

Exercise: So what cell viability did `CN1CCN(c2ncc(-c3cc(Cl)cc(Cl)c3Cl)c(N)n2)CC1` get with HepG2?
Key: 100

Exercise: For HepG2, provide cell viability of `COc1ccc(-c2cc(=O)c3c(O)cc(O)cc3o2)cc1O` please.
Key: 97.7

Exercise: # get_value(readout= cell viability, system= HepG2) for `CCCc1nn(C)c2c(=O)[nH]c(-c3cc(S(=O)(=O)N4CCN(C)CC4)ccc3OCC)nc12`
Key: 96.7

Exercise: Form: Entry = `CC(C)(C)c1cc(O)c(C(C)(C)C)cc1O` | System = HepG2 | cell viability = ____
Key: 102

Exercise: // map CC(Cc1cccc(C(F)(F)F)c1)NCCOC(=O)c1ccccc1 (configuration not stated) to recorded cell viability (system: HepG2)
Key: 86

Exercise: I'm curious: which cell viability was measured for `CNC(=O)c1ccc(-c2cnc3ncc(Cc4ccc5ncccc5c4)n3n2)cc1F` tested on HepG2?
Key: 89.2

Exercise: Request: cell viability, test system HepG2, entry `Cc1cc(C(=O)NOCCO)c(Nc2ccc(I)cc2F)n(C)c1=O`
Key: 78.2

Exercise: Form field - read-out: cell viability; system: HepG2; submitted item: CN[C@@H]1[C@H](O[C@H]2[C@H](O[C@H]3[C@H](O)[C@@H](O)[C@H](N=C(N)N)[C@@H](O)[C@@H]3N=C(N)N)O[C@@H](C)[C@]2(O)C=O)O[C@@H](CO)[C@H](O)[C@H]1O [STREPTOMYCIN SULFATE [5mM; 10% aq DMSO + 5mM ethanolamine]]
Key: 101

Exercise: HepG2 / cell viability / `CCCOc1ccc(C(=O)OCCN(CC)CC)cc1N` : value?
Key: 88.5

Exercise: API: value(readout= cell viability, system= HepG2, query= `Cc1cc(CCCOc2c(C)cc(-c3noc(C(F)(F)F)n3)cc2C)on1` )
Key: 98.6

Exercise: Lookup: cell viability / HepG2 / `c1ccc(NCc2ccc(CNc3ccccn3)cc2)nc1`
Key: 98.6

Exercise: Please provide the recorded cell viability for `Cc1ccc(/N=C/N(C)/C=N/c2ccc(C)cc2C)c(C)c1` , tested on HepG2.
Key: 96

Exercise: Param readout= cell viability; system= HepG2; entry= `CN(Cc1cccc(-c2ccccc2)c1)C(=O)Oc1ccc(-c2ccc(C(N)=O)cc2)cc1` ; returns value.
Key: 95.9

Exercise: // fetch HepG2 cell viability for `COc1ccc2cc(-c3cc(-c4cc(Cl)cc(Cl)c4)nn3[C@@H](C)c3ccc(C(=O)NCCC(=O)O)cc3)ccc2c1`
Key: 88.5
